FYI, the data here is from PubChem BioAssay AID1159580.

# RUN DESCRIPTION: chemical genetic growth profiling, strain panel (AID 1159580);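 further: tested at 20 µM; growth read once vehicle control cultures reached saturation at 30 °C; 1 = growth at the plate median or of vehicle wells; lower values mean less growth of the strain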
# CONDITION DESCRIPTION: S. cerevisiae deletion strains, growth OD, locus YLR268W, strain sec22, stronger effect = lower value
About 2,000 (36%) of roughly 5,500 compounds were called active. Not shown: some 18% with an inconclusive outcome. Some of the results follow.
Kindly state normalized growth for each of the entries shown.
// keep it numeric: no unit symbol after the value

Problem: Request the reported normalized growth associated with Cn1c(=O)[nH]c2ncn(C)c2c1=O
Solution: 0.988

Problem: Same again, this time with COc1cc([C@@H]2c3cc4c(cc3[C@H](O)[C@H]3COC(=O)[C@H]23)OCO4)cc(OC)c1OC
Solution: 1.06

Problem: Same again, this time with CC(C)OC(=O)Nc1cccc(Cl)c1
Solution: 0.99

Problem: Same again, this time with Cn1c(=O)[nH]c2nc[nH]c2c1=O
Solution: 1.01

Problem: Same again, this time with N[C@@H](C(=O)N[C@@H]1C(=O)N2C(C(=O)O)=C(Cl)CS[C@H]12)c1ccccc1
Solution: 1.02

Problem: Same again, this time with C[C@H]1C(=O)CCC2[C@]3(C)CC[C@@]4(C)C5CC(C)(C)CC[C@]5(C)CC[C@]4(C)C3CC[C@@]21C (stereo partly specified)
Solution: 0.985

Problem: Same again, this time with COP(=O)(NC(C)=O)SC (stereo unspecified)
Solution: 0.999

Problem: Same again, this time with CC1=C(C(=O)O)N2C(=O)[C@@H](NC(=O)[C@@H](N)c3ccc(O)cc3)[C@H]2SC1
Solution: 0.977

Problem: Same again, this time with COc1cc(OC)c2c(OC)c(-c3ccc4c(c3)OCO4)c(=O)oc2c1
Solution: 0.946

Problem: Same again, this time with Cn1c(=O)c2c(ncn2CCO)n(C)c1=O
Solution: 1.06

Problem: Same again, this time with COC1=CC23CCCN2CCc2cc4c(cc2C3C1O)OCO4 (stereo unspecified)
Solution: 1.02

###

# RUN DESCRIPTION: chemical genetic growth profiling, strain panel (AID 1159580)
# CONDITION DESCRIPTION: S. cerevisiae deletion strains, growth OD, locus YLR039C, strain RIC1, stronger effect = lower value
The whole screen tested about 5,500 compounds, of which about 2,000 (36%) were called active. About 18% were inconclusive and are not listed. The list shows a part of the results.
Kindly state normalized growth for each of the entries shown.
// keep it numeric: no unit symbol after the value

Problem: Request the reported normalized growth associated with CNC(C)[C@@H]1CC[C@@H](N)[C@@H](OC2[C@@H](N)C[C@@H](N)[C@H](OC3OC[C@](C)(O)[C@H](NC)[C@H]3O)[C@H]2O)O1 (stereo not given in full)
Solution: 1.08

Problem: Same again, this time with CCCc1ncc(C[n+]2ccccc2C)c(N)n1
Solution: 0.944

Problem: Same again, this time with COc1cccc(C2SCc3cc(C)c(C)cc3CS2)c1O
Solution: 1.07

Problem: Same again, this time with CC(=O)Oc1c(C)c(C)c2c(c1C)CCC(C)(CCCC(C)CCCC(C)CCCC(C)C)O2 (stereo not given)
Solution: 1.08

Problem: Same again, this time with C=C(C)C1Cc2c(ccc3c(=O)c4c(oc23)COc2cc(OC)c(OC)cc2-4)O1 (stereo not given)
Solution: 0.99

###

# RUN DESCRIPTION: chemical genetic growth profiling, strain panel (AID 1159580);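 further: tested at 20 µM; growth read once vehicle control cultures reached saturation at 30 °C; 1 = growth at the plate median or of vehicle wells; lower values mean less growth of the strain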
# CONDITION DESCRIPTION: S. cerevisiae deletion strains, growth OD, locus YER123W, strain YCK3
Screen size: about 5,500 compounds; about 2,000 (36%) were called active. Roughly 18% stayed inconclusive and do not appear here. Rule as the data show it: active = normalized growth mostly below about 0.91 (no sharp cut-off); inconclusive = no clear call, values can overlap the other calls; inactive = mostly above about 0.92. The list shows a part of the results.
Give one outcome, nothing more. List: active, inactive

Problem: // return assay outcome for S=C(NCc1cccs1)Nc1cc(Cl)cc(Cl)c1
Solution: inactive

Problem: Same again, this time with O=C(Nc1cc(Cl)cc(Cl)c1)c1cc(Cl)ccc1O
Solution: inactive

Problem: Same again, this time with CCOC(=O)C(O)(c1ccc(NC(=O)c2ccc(Cl)c(Cl)c2)cc1)C(F)(F)F (stereo unspecified)
Solution: inactive

Problem: Same again, this time with CCOC(=O)c1ccc(N=Cc2cc(Cl)cc(Cl)c2O)cc1
Solution: active

Problem: Same again, this time with O=C(Nc1ccc(F)cc1)c1cc(Br)ccc1O
Solution: inactive

Problem: Same again, this time with CC(C)OC(=O)Nc1cc(Cl)cc(Cl)c1
Solution: inactive

Problem: Same again, this time with Cc1oc(C(C)(C)C)cc1-c1cc(NC(=O)c2ccccc2)n[nH]1
Solution: inactive

Problem: Same again, this time with Cc1cc(N=Cc2cc(Cl)cc(Cl)c2O)no1
Solution: active

Problem: Same again, this time with COc1ccc(Oc2ccc([N+](=O)[O-])cc2C(=O)O/N=C(/N)c2ccc(C(F)(F)F)cc2)cc1
Solution: inactive

Problem: Same again, this time with N#CC(C(=O)Nc1cccc(C(F)(F)F)c1)C(=S)Nc1ccccc1Cl (stereo unspecified)
Solution: inactive

Problem: Same again, this time with COC(=S)Nc1cc(Cl)cc(Cl)c1
Solution: active

###

Kindly state normalized growth for each of the entries shown.
# RUN DESCRIPTION: chemical genetic growth profiling, strain panel (AID 1159580);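 further: tested at 20 µM; growth read once vehicle control cultures reached saturation at 30 °C; 1 = growth at the plate median or of vehicle wells; lower values mean less growth of the strain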
# CONDITION DESCRIPTION: S. cerevisiae deletion strains, growth OD, locus YDR101C, strain arx1, stronger effect = lower value
The whole screen tested about 5,500 compounds, of which about 2,000 (36%) were called active. Not shown: some 18% with an inconclusive outcome. Some of the results follow.
// keep it numeric: no unit symbol after the value

Problem: Request the reported normalized growth associated with CC(=O)OC1CCC2(O)CC1(C)CCC1C2CC1(C)C (stereo unspecified)
Solution: 0.973

Problem: Same again, this time with CC(=O)Oc1c(C)c(C)c2c(c1C)CCC(C)(CCCC(C)CCCC(C)CCCC(C)C)O2 (stereo unspecified)
Solution: 0.983

Problem: Same again, this time with CON
Solution: 1.02

Problem: Same again, this time with CC(C)Cn1c(=O)n(C)c(=O)c2[nH]cnc21
Solution: 0.989

Problem: Same again, this time with CC(=O)O[C@@H]1C2CC[C@@H]3C1(C[C@@H](O)[C@@]1(O)[C@@H](C[C@H](O)C1(C)C)[C@]3(C)O)C[C@@]2(C)O (stereo partly specified)
Solution: 0.976

Problem: Same again, this time with CCCc1ncc(C[n+]2ccccc2C)c(N)n1
Solution: 1.01

Problem: Same again, this time with Cc1c(NC(C)C)c(=O)n(-c2ccccc2)n1C
Solution: 0.984

Problem: Same again, this time with CC(=O)OC1CCC23CC1(C)CCC2C(C)(C)CC3OC(C)=O (stereo unspecified)
Solution: 0.98

Problem: Same again, this time with COc1cc(OC)c2c(OC)c(-c3ccc4c(c3)OCO4)c(=O)oc2c1
Solution: 0.975

Problem: Same again, this time with COc1cc([C@@H]2c3cc4c(cc3[C@H](O)[C@H]3COC(=O)[C@H]23)OCO4)cc(OC)c1OC
Solution: 1.01

Problem: Same again, this time with CN1CCC[C@H]1c1cccnc1
Solution: 1

###

Kindly state normalized growth for each of the entries shown.
# RUN DESCRIPTION: chemical genetic growth profiling, strain panel (AID 1159580);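 further: tested at 20 µM; growth read once vehicle control cultures reached saturation at 30 °C; 1 = growth at the plate median or of vehicle wells; lower values mean less growth of the strain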
# CONDITION DESCRIPTION: S. cerevisiae deletion strains, growth OD, locus YKL085W, strain MDH1, stronger effect = lower value
Screen size: about 5,500 compounds; about 2,000 (36%) were called active. Not shown: some 18% with an inconclusive outcome. The list shows a part of the results.
// keep it numeric: no unit symbol after the value

Problem: Request the reported normalized growth associated with CN1C(=O)CC[C@H]1c1cccnc1
Solution: 1.01

Problem: Same again, this time with CC(=O)CCCCn1c(=O)c2c(ncn2C)n(C)c1=O
Solution: 1

Problem: Same again, this time with Cn1c(=O)c2c(ncn2C)n(C)c1=O
Solution: 0.991

Problem: Same again, this time with CC(=O)OCC1=C(C(=O)O)N2C(=O)[C@@H](NC(=O)CSc3ccncc3)[C@H]2SC1
Solution: 0.975

Problem: Same again, this time with CC(C)N1C(=O)c2ccccc2NS1(=O)=O
Solution: 0.997

Problem: Same again, this time with Cn1c(=O)[nH]c2nc[nH]c2c1=O
Solution: 1.02

Problem: Same again, this time with CC(=O)Oc1c(C)c(C)c2c(c1C)CCC(C)(CCCC(C)CCCC(C)CCCC(C)C)O2 (stereo not drawn)
Solution: 0.997

Problem: Same again, this time with O=C(CCc1ccc(O)cc1)c1c(O)cc(O)cc1O
Solution: 1.02

Problem: Same again, this time with O=C1NS(=O)(=O)c2ccccc21
Solution: 0.994

Problem: Same again, this time with COc1cc(O)ccc1C(C)=O
Solution: 0.986

Problem: Same again, this time with Cn1c(=O)c2c(ncn2CCO)n(C)c1=O
Solution: 0.993

Problem: Same again, this time with COP(=O)(NC(C)=O)SC (stereo not drawn)
Solution: 0.997

Problem: Same again, this time with CC1(C)CC23C(=O)CCC(O)C2(C)CCC13 (stereo not drawn)
Solution: 1.01
